# experimental-target: human IDO1 (Homo sapiens)
# method-description: Assessment of human IDO-1 inhibitory activity in HEK cells (human IDO1/HEK293 cells, kynurenine read-out with Ehrlich reagent, absorbance 490 nm)
# Type: cell-based
# Design: expressed in transfected cells
# test-settings: HEK Human IDO-1 cellular assay
quantity-measured: IC50

Field: example entries. Status: answers known.
molecule	experimental-target	IC50
CC(CC(=O)O)c1ccc(N2C[C@@H](C)O[C@@H](C)C2)c(Nc2ccc(C#N)cc2)c1 (single isomer, unassigned)	human IDO1 (Homo sapiens)	> 50 nM
CC[C@@H](CC(=O)O)c1ccc(N(CC)C2CCOCC2)c(NC(=O)Nc2ccc(F)cc2)c1 (single isomer, unassigned)	human IDO1 (Homo sapiens)	< 50 nM
CC[C@@H](CC(=O)O)c1ccc(N(CC(C)C)CC(C)C)c(Nc2ccc3nc(C)sc3c2)c1 (single isomer, unassigned)	human IDO1 (Homo sapiens)	> 50 nM
COCC(CC(=O)O)c1ccc(N(CC(C)C)C2CCCCC2)c(NC(=O)Nc2cc(C)on2)c1 (racemic) [Example 986]	human IDO1 (Homo sapiens)	< 50 nM

[Q] Dear colleague, I am looking for the recorded IC50 of the following molecule: CC(C)CN(CC(C)C)c1ccc(C(CC(=O)O)CN(C)C)cc1NC(=O)Nc1cncnc1 (racemic)
[A] > 50 nM

[Q] Dear colleague, I am looking for the recorded IC50 of the following molecule: CCCN(c1ccc([C@@H](CC)CC(=O)O)cc1Nc1ccc2nc(C)sc2c1)C1CCOCC1 (single isomer, unassigned)
[A] < 5 nM

[Q] Dear colleague, I am looking for the recorded IC50 of the following molecule: CC[C@@H](CC(=O)O)c1ccc(N(CC)C2CCOCC2)c(Nc2cnc3cnccn23)c1 (single isomer, unassigned)
[A] > 50 nM

----------
Reported IC50 values are given for each entry in this list.
# experimental-target: human IDO1 (Homo sapiens, UniProt P14902)
# Sequence (P14902 whole entry): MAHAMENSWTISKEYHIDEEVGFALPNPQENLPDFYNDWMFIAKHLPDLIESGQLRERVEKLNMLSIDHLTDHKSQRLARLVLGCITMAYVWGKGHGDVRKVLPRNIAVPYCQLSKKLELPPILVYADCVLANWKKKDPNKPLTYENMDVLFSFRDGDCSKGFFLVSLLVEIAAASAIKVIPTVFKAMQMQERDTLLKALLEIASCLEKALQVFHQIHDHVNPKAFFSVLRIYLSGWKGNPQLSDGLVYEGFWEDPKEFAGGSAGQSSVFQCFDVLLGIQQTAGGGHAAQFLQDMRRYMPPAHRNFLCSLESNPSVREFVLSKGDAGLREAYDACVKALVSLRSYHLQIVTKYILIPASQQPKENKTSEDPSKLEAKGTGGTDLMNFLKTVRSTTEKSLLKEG
# method-description: Assessment of human IDO-1 inhibitory activity in Hela cells (Interferon-gamma stimulated HeLa cells, Ehrlich reagent, absorbance 490 nm)
# Type: cell-based
# Design: endogenous in cells; host or cells: HeLa cells stimulated with interferon-gamma
# test-settings: Hela Human IDO-1 cellular assay

Field: example entries. Status: answers known.
molecule	IC50
CCC(CC(=O)O)c1cc(F)c(N(CC)C2CCOCC2)c(Nc2ccc(OC)nc2)c1 (single isomer, unassigned) [Example 142]	< 5 nM
CCOc1ccc(Nc2cc([C@H](CC)CC(=O)O)ccc2N(CC)C2CCOCC2)nn1 (single isomer, unassigned)	< 5 nM
CCCN(c1ccc(C(C)(C)CC(=O)O)cc1Nc1cnc(OCC)nc1)C1CCS(=O)(=O)CC1	> 50 nM

[Q] Dear colleague, I am looking for the recorded IC50 of the following molecule: CCOc1cc(Nc2cc([C@@H](COC)CC(=O)O)ccc2N(CC)C2CCOCC2)ccc1C#N (single isomer, unassigned)
[A] < 50 nM

[Q] Dear colleague, I am looking for the recorded IC50 of the following molecule: CCC1COCCN1c1ccc([C@@H](COC)CC(=O)O)cc1Nc1ccc(F)cc1 (single isomer, unassigned)
[A] > 50 nM

[Q] Dear colleague, I am looking for the recorded IC50 of the following molecule: COCC(CC(=O)O)c1ccc(N2CCOC[C@H]2C(C)C)c(Nc2ccc(C#N)cc2)c1 (single isomer, unassigned) [Example 912]
[A] < 5 nM

[Q] Dear colleague, I am looking for the recorded IC50 of the following molecule: CCOc1ncc(Nc2cc(C(CC)CC(=O)O)ccc2N2CCC(C)CC2)cn1 (single isomer, unassigned)
[A] > 50 nM

Where these numbers come from: patent US9790169B2
